test_description: in vivo
condition_summary: dog, po, 200 mg/kg
experimental_endpoint: concentration at 24 h (ng/mL)

compound="O=C(O)[C@H](O)[C@@H](O)CO [calcium L-threonate]" numeric_value=3990

* * *

test_description: in vivo
condition_summary: dog, po, 200 mg/kg
experimental_endpoint: concentration at 1 h (ng/mL)

molecule="O=C(O)[C@H](O)[C@@H](O)CO [calcium L-threonate]" experimental_endpoint="concentration at 1 h" numeric_value=35900

* * *

test_description: Pharmacokinetic test: enhancement of serum Ca level in rats after single oral (stomach) administration
condition_summary: rat, in vivo, po, 200 mg/kg
experimental_endpoint: Tmax (min)

compound="O=C(O)O [calcium carbonate]" numeric_value=39.6
compound="CC(=O)O [calcium acetate]" numeric_value=36.6
compound="O=C(O)[C@H](O)[C@@H](O)[C@H](O)[C@H](O)CO [calcium gluconate, reference compound]" numeric_value=26.4
